test system: compound-treated mice; assay: Neuropharmacological assay (SmartCube): behavioral activity signature and minimal effective dose; assay type: in vivo; details: i.p. 15 min before test, most efficacious dose(s)
EXPERIMENTAL ENDPOINT: CE: cognitive enhancer (probability of activity signature)

Worked cases, answers included:
Cl.NC1COCc2ccc(Cl)c(Cl)c21 (stereo not drawn)	++ (5% ≤ ++ <25%)
C[C@H]1OCc2c(Cl)cccc2[C@@H]1N.Cl	++ (5% ≤ ++ <25%)
C[C@H]1OCc2ccc(F)cc2[C@H]1N	++ (5% ≤ ++ <25%)
CCCN[C@H]1c2ccccc2CO[C@@H]1C.Cl	+ (LOQ ≤ + <5%)
Cl.NC1CCOCc2cc(Cl)ccc21 (stereo not drawn)	+ (LOQ ≤ + <5%)
Cc1ccc2c(c1C)C(N(C)C)COC2.Cl (stereo not drawn)	++ (5% ≤ ++ <25%)

Kindly give each listed record's CE: cognitive enhancer (probability of activity signature).
1. CCC[C@H]1OCc2ccccc2[C@@H]1N (single isomer, unassigned)
2. C[C@H]1OC[C@@H](N)c2cc(F)ccc21.Cl
3. Cl.NC1COCc2ccc3c(c21)C1CCC3C1 (single isomer, unassigned) [Example 164]
4. CN[C@@H]1COCc2ccc(C)cc21
5. CC[C@H]1OCc2cccc(Cl)c2[C@@H]1N.Cl (single isomer, unassigned)
6. Cl.NC1CCOCc2ccccc21 (stereo not drawn)

OUTPUT:
1: + (LOQ ≤ + <5%); 2: ++ (5% ≤ ++ <25%); 3: ++ (5% ≤ ++ <25%); 4: ++ (5% ≤ ++ <25%); 5: ++ (5% ≤ ++ <25%); 6: ++ (5% ≤ ++ <25%)

Kindly give each listed record's CE: cognitive enhancer (probability of activity signature).
1. CN[C@@H]1COCc2ccc(C)c(C)c21
2. Cl.NC1COCc2ccc3ccccc3c21 (stereo not drawn)
3. N[C@H]1COCc2ccc(Cl)c(Cl)c21 (single isomer, unassigned)

OUTPUT:
1: ++ (5% ≤ ++ <25%); 2: ++ (5% ≤ ++ <25%); 3: ++ (5% ≤ ++ <25%)

###

tested on: compound-treated mice; assay: Neuropharmacological assay (SmartCube): behavioral activity signature and minimal effective dose; assay type: in vivo; conditions: i.p. 15 min before test, most efficacious dose(s)
EXPERIMENTAL ENDPOINT: CE: cognitive enhancer (probability of activity signature)

Cc1cccc2c1COC[C@H]2N (single isomer, unassigned)	++ (5% ≤ ++ <25%)
Cc1cccc2c1CO[C@H](C)[C@H]2N.Cl	++ (5% ≤ ++ <25%)
Cl.NC1COCc2c(Cl)cccc21 (stereo not shown)	++ (5% ≤ ++ <25%)
Cl.NC1COCc2cc(F)ccc21 (stereo not shown)	+ (LOQ ≤ + <5%)

Kindly give each listed record's CE: cognitive enhancer (probability of activity signature).
1. Cc1cc2c(cc1C)[C@H](N)[C@H](C)OC2.Cl
2. C[C@H]1OCc2cc(Cl)ccc2[C@@H]1N.Cl

OUTPUT:
1. + (LOQ ≤ + <5%)
2. + (LOQ ≤ + <5%)

###

tested on: compound-treated mice; assay: Neuropharmacological assay (SmartCube): behavioral activity signature and minimal effective dose; assay type: in vivo; conditions: i.p. 15 min before test, most efficacious dose(s)
EXPERIMENTAL ENDPOINT: AG: analgesic (probability of activity signature)

C[C@@H]1OCc2ccccc2[C@@H]1N (single isomer, unassigned)	++ (5% ≤ ++ <25%)
Cl.NC1CCOCc2c(Cl)cccc21 (centres unmarked)	++ (5% ≤ ++ <25%)
N[C@H]1COCc2ccc3ccccc3c21 (single isomer, unassigned)	++ (5% ≤ ++ <25%)
N[C@H]1COCc2c(Cl)cccc21	++ (5% ≤ ++ <25%)
Cc1ccc2c(c1)[C@@H](N)[C@H](C)OC2	++ (5% ≤ ++ <25%)
CCc1ccc2c(c1)[C@H](N)[C@H](C)OC2.Cl	++ (5% ≤ ++ <25%)
Cl.NC1COCc2c(Cl)cccc21 (centres unmarked)	++ (5% ≤ ++ <25%)
CN[C@H]1COCc2cccc(Cl)c21	++ (5% ≤ ++ <25%)
CCN(C)C(=O)Oc1ccc2c(c1)COCC2N(C)C.Cl (centres unmarked)	+ (LOQ ≤ + <5%)
Cl.NC1COCCc2ccc3ccccc3c21 (centres unmarked) [Example 32]	++ (5% ≤ ++ <25%)

Kindly give each listed record's AG: analgesic (probability of activity signature).
1. Cc1cc(C)c2c(c1)C(N)COC2.Cl (centres unmarked)
2. CN[C@H]1COCc2cccc(C)c21 (single isomer, unassigned)
3. C[C@@H]1OCc2ccc(F)cc2[C@@H]1N
4. CCN(C)C(=O)Oc1ccc2c(c1)C(N(C)C)COC2.Cl (centres unmarked)
5. Cc1ccc2c(c1)CO[C@H](C)[C@H]2N
6. C[C@@H]1OCc2ccc(Cl)cc2[C@@H]1N.Cl

OUTPUT:
++ (5% ≤ ++ <25%)
++ (5% ≤ ++ <25%)
++ (5% ≤ ++ <25%)
+ (LOQ ≤ + <5%)
+ (LOQ ≤ + <5%)
++ (5% ≤ ++ <25%)

Kindly give each listed record's AG: analgesic (probability of activity signature).
1. Cc1ccc2c(c1)CO[C@@H](C)[C@@H]2N
2. COc1cccc2c1CO[C@H](C)[C@H]2N.Cl

OUTPUT:
["+ (LOQ ≤ + <5%)", "+ (LOQ ≤ + <5%)"]

###

test system: compound-treated mice; assay: Neuropharmacological assay (SmartCube): behavioral activity signature and minimal effective dose; format: in vivo; conditions: i.p. 15 min before test, most efficacious dose(s)
Where a name gives a salt, the structure may show the parent alone.
EXPERIMENTAL ENDPOINT: CE: cognitive enhancer (probability of activity signature)

Worked cases, answers included:
Cc1ccc2c(c1)[C@@H](N)[C@H](C)OC2.Cl (relative stereo)	++ (5% ≤ ++ <25%)
CC[C@H]1OCc2ccc(C)cc2[C@@H]1N.Cl (relative stereo)	++ (5% ≤ ++ <25%)
Cl.NC1COCc2ccc3ncccc3c21 (stereo not shown)	+ (LOQ ≤ + <5%)
Cc1ccc2c(c1)COCC2N.Cl (stereo not shown)	++ (5% ≤ ++ <25%)
CN[C@@H]1COCc2cccc(Cl)c21	++ (5% ≤ ++ <25%)
N[C@H]1COCc2ccc(F)cc21 (single isomer, unassigned)	++ (5% ≤ ++ <25%)
Cc1ccc2c(c1)C(N(C)C)CCOC2.Cl (stereo not shown)	+++ (25% ≤ +++ <50%)
C[C@H]1OCc2ccc(F)cc2[C@@H]1N	++ (5% ≤ ++ <25%)

Kindly give each listed record's CE: cognitive enhancer (probability of activity signature).
1. N[C@H]1COCc2ccccc21 (single isomer, unassigned)
2. CC(C)[C@@H]1OCc2ccccc2[C@@H]1N (relative stereo) [Example 256, hydrochloride]
3. CN[C@H]1COCc2cccc(C)c21 (single isomer, unassigned)
4. C[C@H]1OCc2ccc3c(c2[C@@H]1N)CCCO3.Cl
5. N[C@@H]1COCc2c(Cl)cccc21
6. Cc1cccc2c1[C@H](N)CO[C@H]2C
7. CC(C)[C@@H]1OCc2ccccc2[C@H]1N.Cl (relative stereo) [Example 274]

OUTPUT:
1. +++ (25% ≤ +++ <50%)
2. + (LOQ ≤ + <5%)
3. ++ (5% ≤ ++ <25%)
4. ++ (5% ≤ ++ <25%)
5. +++ (25% ≤ +++ <50%)
6. + (LOQ ≤ + <5%)
7. + (LOQ ≤ + <5%)

Kindly give each listed record's CE: cognitive enhancer (probability of activity signature).
1. CCN(C)C(=O)Oc1ccc2c(c1)CO[C@@H](C)[C@H]2N(C)C.Cl
2. Cc1ccc2c(c1)C(N)COC2.Cl (stereo not shown)
3. CC(C)C[C@H]1OCc2ccccc2[C@@H]1N
4. COc1cccc2c1CO[C@H](C)[C@H]2N.Cl

OUTPUT:
["+ (LOQ ≤ + <5%)", "++ (5% ≤ ++ <25%)", "+++ (25% ≤ +++ <50%)", "+ (LOQ ≤ + <5%)"]

Kindly give each listed record's CE: cognitive enhancer (probability of activity signature).
1. Cc1cccc2c1[C@H](N)[C@H](C)OC2.Cl
2. C[C@@H]1OCc2c(F)cccc2[C@@H]1N.Cl
3. C#CCN[C@H]1c2ccccc2CO[C@H]1C.Cl
4. Cc1ccc(Cl)c2c1[C@H](N)[C@@H](C)OC2.Cl

OUTPUT:
["++ (5% ≤ ++ <25%)", "++ (5% ≤ ++ <25%)", "+ (LOQ ≤ + <5%)", "++ (5% ≤ ++ <25%)"]

Kindly give each listed record's CE: cognitive enhancer (probability of activity signature).
1. Cl.NC1COCc2ccc(Cl)cc21 (stereo not shown) [Example 1, 6-Chloroisochroman-4-amine hydrochloride]
2. CC[C@@H]1OCc2ccc(F)cc2[C@H]1N

OUTPUT:
1: ++ (5% ≤ ++ <25%); 2: ++ (5% ≤ ++ <25%)
